System: LOX IMVI melanoma
Test: NCI tumour cell line growth inhibition, 48 h; in the data active = GI50 below about 0.43 µM; inactive = the rest
Outcomes you can answer with include only these: class 1 for active, class 0 for inactive

Look over these answered cases.
- ClCc1cccc(Cn2cnc3c(NC45CC6CC(CC(C6)C4)C5)ncnc32)c1: class 0
- CCOC(=O)C(N)C[S][Sn]([CH3])([CH3])[Cl] (centres undefined): class 0
- CC(=O)[O-].CC(=O)[O-].[Pt+2].c1cscn1.c1cscn1: class 0
- Cc1c[nH]c2c(O)cc3c(c12)[C@H](CCl)CN3C(=O)c1cc2cc(NC(=O)Nc3ccc4[nH]c(C(=O)N5C[C@@H](CCl)c6c5cc(O)c5[nH]cc(C)c65)cc4c3)ccc2[nH]1: class 1
- CC(C)=CCCC(C)c1ccc(C)c2c1OCN(CC1CCNCC1)C2 (centres undefined): class 0
- COc1ccc(/C=N\NC(=O)CN2CCN(c3cc4c(cc3F)c(=O)c(C(=O)N/N=C/c3ccc(OC)c(OC)c3)cn4C3CC3)CC2)cc1OC: class 0

Asked: // return assay outcome for "COc1ccc(CN(C)c2ccc(CO)c(Cl)c2)cc1"
Given back: class 0

Asked: I would be grateful if you could indicate the recorded call for C=CCC(N[C@H](CO)c1ccccc1)c1ccc2ccccc2n1 (some centres undefined) .
Given back: class 0

Asked: Dear colleague, could you share the recorded outcome for "CC(=O)c1c(C)[nH]c(-c2nc3ccc(N4CCN(C)CC4)cc3[nH]2)c1-c1ccc(OCC2CCOCC2)cc1" when you have a moment?
Given back: class 1

###

System: SK-OV-3 ovarian
Test: NCI tumour cell line growth inhibition, 48 h
Experimental endpoint: GI50

Examples with their reported GI50 follow.
• ClCc1cccc(Cn2cnc3c(NC45CC6CC(CC(C6)C4)C5)ncnc32)c1 = 21.1 µM
• O=C1Nc2ccc(C(=O)c3ccco3)cc2/C1=C/c1cc(Cl)c(O)c(Cl)c1 = 4.51 µM
• O=c1c2c(nc3n1CCS3)[nH]c1ccccc12 = > 100 µM
• NOCC(=O)O = > 100 µM
• CCOC(=O)C(Cc1c[nH]c2ccc(N)cc12)(NC(C)=O)C(=O)OCC = > 1000 µM

Asked: For "COc1cc2c(cc1OCCCOc1cc3c(cc1OC)C(=O)N1C[C@H](F)C[C@H]1C=N3)N=C[C@@H]1C[C@@H](F)CN1C2=O" , write its GI50.
Given back: 17.9 µM

Asked: Give recorded GI50. "CCOC(=O)c1cc(C#N)c(=O)n(/N=C(\C)c2ccncc2)c1O"
Given back: > 100 µM

Asked: Annotate the compound CC(O)c1cccc(NCc2c3ccccc3c(=O)n3c2oc2ccccc23)c1 (stereo not drawn) with its measured GI50.
Given back: 4.42 µM

###

System: MOLT-4 leukemia
Assay: NCI tumour cell line growth inhibition, 48 h
Experimental endpoint: TGI

Asked: Quote TGI with test system MOLT-4 leukemia for "CCN(CC)CSc1nc2ccccc2o1"
Given back: > 100 µM

Asked: Give reported TGI for "Cc1cc(C)nc(NS(=O)(=O)c2ccc(Nc3c4ccccc4nc4c(C(=O)NNCCO)cccc34)cc2)n1" (MOLT-4 leukemia)
Given back: > 100 µM

Asked: Specify TGI for C=CC1(C(=O)O)CCC(C(C)(C)C)CC1 (stereo unspecified) , system MOLT-4 leukemia.
Given back: > 100 µM

Asked: Find TGI for "O=C(O)c1ccc(P(=O)(O)c2ccc(C(=O)O)cc2Br)c(Br)c1" on MOLT-4 leukemia and write it down.
Given back: > 100 µM

Asked: Write down measured TGI (MOLT-4 leukemia) for this compound. COc1cc(S(=O)(=O)Nc2nc(-c3ccc(N4C(=O)C(CC(=O)O)SC4c4ccccc4O)cc3)cs2)ccc1Cl (stereo unspecified)
Given back: > 100 µM

Asked: Please respond with reported TGI (system MOLT-4 leukemia) for CN1C2CCC1CC(CCOC(c1ccc(F)cc1)c1ccc(F)cc1)C2 (stereo unspecified) .
Given back: 44 µM

###

Tested on: UACC-62 melanoma
Experiment: NCI tumour cell line growth inhibition, 48 h
Experimental endpoint: TGI

• CCOC(=O)Nc1nc2ccc(Cn3cccc3)cc2[nH]1 = > 100 µM
• NOCC(=O)O = > 100 µM

Asked: Output measured TGI for this item: "CNc1c2cccc(C)c2nc2c(C(=O)NCCN(C)C)cccc12"
Given back: 0.402 µM

Asked: Supply TGI value. Item: "O=C(/C=C/c1ccc(F)cc1)c1ccc(Cl)cc1Cl"
Given back: > 100 µM

###

Tested on: OVCAR-4 ovarian
Assay: NCI tumour cell line growth inhibition, 48 h
Experimental endpoint: TGI

Asked: Supply measured TGI of ClC1(Cl)C(c2ccccc2)C1c1ccccc1 (centres undefined) in your reply.
Given back: > 100 µM

Asked: Supply measured TGI of "CCOC(=O)c1cc(C#N)c(=O)n(/N=C(\C)c2ccncc2)c1O" in your reply.
Given back: > 100 µM

Asked: Entry "COc1cc(/C=C/C(=O)CC(=O)/C=C/c2cc(OC)c(OC)c(OC)c2)cc(OC)c1OC" needs its TGI filled in; supply it.
Given back: 19.7 µM

Asked: Recall and state the measured TGI for "O=S(=O)(NC1=NCCN1C(=S)SN1CCn2c1nsc2=S)c1ccc(Br)cc1" .
Given back: > 100 µM

Asked: Please look at this compound and report its TGI: "CC1(C)CN=C(c2ccc3c(c2)Cc2cc(C4=NCC(C)(C)N4)ccc2-3)N1"
Given back: > 100 µM

Asked: Quote TGI reported for "Cc1cc(I)cc(CN(C)CCCN2CCSCC2)c1O" please.
Given back: > 100 µM

Asked: State, in one line, measured TGI of "O=[N+]([O-])c1cc(Cl)c(Cl)c([N+](=O)[O-])c1Cl"
Given back: 3.06 µM

###

System: SK-MEL-2 melanoma
Assay: NCI tumour cell line growth inhibition, 48 h; in the data active means GI50 below about 0.43 µM; inactive means the rest
In this exercise, the only acceptable responses are active, inactive

Some solved entries appear below for comparison.
* Cn1c([N+](=O)[O-])cnc1/C=C1\Oc2ccccc2C1=O | active
* C=C1C(=O)O[C@H]2[C@H]1CC/C(CNC(=O)c1cc3cc(OC)ccc3[nH]1)=C\CC[C@@]1(C)O[C@@H]21 | inactive
* C=CCC(N[C@H](CO)c1ccccc1)c1ccc2ccccc2n1 (some centres undefined) | inactive
* CC12OC(c3ccccc3)=CC(c3ccc(Cl)cc3)=C1C(c1ccccc1)=CC2=O (centres undefined) | inactive
* CCOC(=O)C(N)C[S][Sn]([CH3])([CH3])[Cl] (centres undefined) | inactive

Asked: Query: recorded result category for "COc1cc(/C=C/C(=O)CC(=O)/C=C/c2cc(OC)c(OC)c(OC)c2)cc(OC)c1OC" in this test
Given back: inactive

Asked: Check the results log: what was the call for CSc1ccc(C2=NN(C(=O)c3ccc(F)cc3)C(c3ccc(F)cc3)C2)cc1 (centres undefined) ?
Given back: inactive

Asked: Hey, what did the test say about "CC(=O)[O-].CC(=O)[O-].[Pt+2].c1cscn1.c1cscn1" ?
Given back: inactive

Asked: // return assay outcome for "Cc1ccccc1NC(=O)N/C(N)=N/c1nc(-c2cccc([N+](=O)[O-])c2)cs1"
Given back: inactive

Asked: Please state the recorded outcome for this molecule: "O=C(O[C@H]1CN[C@H](C#Cc2cc3ncnc(Nc4ccc5c(ccn5Cc5cc(F)ccc5F)c4)c3s2)C1)N1CCOCC1"
Given back: inactive

Asked: # fetch the recorded call for "COc1cc(Nc2nccc(Nc3ccc4c(C)[nH]nc4c3)n2)cc(OC)c1OC" here
Given back: inactive

Asked: Which result was noted for this molecule in the test: "COc1ccc(CN(C)c2ccc(CO)c(Cl)c2)cc1"
Given back: inactive

Asked: Hi team, can someone confirm the assay call for "O=c1c2c(nc3n1CCS3)[nH]c1ccccc12" ?
Given back: inactive

Asked: Would you mind telling me which call this test gave "CCN1CCN(C(=O)[C@]23CC[C@@H](C)[C@H](C)[C@@H]2C2=CC[C@@H]4[C@@]5(C)C/C(=C/c6ccncc6)C(=O)C(C)(C)[C@@H]5CC[C@@]4(C)[C@]2(C)CC3)CC1" ?
Given back: inactive

###

System: HL-60(TB) leukemia
Assay: NCI tumour cell line growth inhibition, 48 h
Experimental endpoint: TGI (µM)
Respond numerically; units are µM and should not be typed.

Here are 3 compounds together with their reported answers.
• COc1ccc([N+](=O)[O-])c2c(NCCCN(C)C)c3ccccc3nc12 = 3.8
• CC1=C(C(=O)Nc2ccccc2C)C(c2ccc(Cl)c(Cl)c2)C(C(=O)Nc2ccccc2C)=C(C)N1 = 45.4
• CC1=C2[C@@H](CC1)[C@]1(C)O[C@@](C3CCCCC3)(C[C@H]1OC(=O)CO)[C@H]2OC(=O)/C=C/c1ccccc1 = 18.3

Now for the compound whose TGI we want.
Asked: Answer with the recorded TGI for the compound listed here: COCC(N=CN1CCCc2ccccc2[C@@H]1CCCCl)C(C)(C)C (some centres undefined)
Given back: 8.97
